Molecular target: T1, Brat-NHL (Drosophila melanogaster, UniProt Q8MQJ9 756-1037)
T1 sequence: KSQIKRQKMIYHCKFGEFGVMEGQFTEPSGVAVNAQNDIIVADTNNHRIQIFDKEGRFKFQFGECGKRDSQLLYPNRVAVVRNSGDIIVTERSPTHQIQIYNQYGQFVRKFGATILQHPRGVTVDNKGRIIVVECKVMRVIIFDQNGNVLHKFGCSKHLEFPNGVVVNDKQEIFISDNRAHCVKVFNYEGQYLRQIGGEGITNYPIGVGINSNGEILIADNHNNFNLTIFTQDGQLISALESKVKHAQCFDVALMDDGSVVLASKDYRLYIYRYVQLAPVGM
Experiment: ITC
test_readout: pKd
Give bare numbers, as −log10 of the molar value.

Req: What value of measured pKd is listed for UUGUUGUCGAAAAUUGUACAUAA (structured_RNA) [NRE2 (23-mer)] ?
Resp: 6.05
